B1: glmS ribozyme (parent)
chain: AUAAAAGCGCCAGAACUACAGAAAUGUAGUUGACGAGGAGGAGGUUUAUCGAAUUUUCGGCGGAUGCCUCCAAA

- Variants of: B1
- Measurement Protocol: self-cleavage kobs at 10000 uM GlcN6P; higher = faster cleavage; RNA array
- Test Parameters: with glucosamine-6-phosphate
Variants at the floor of the assay were thinned out.
Recorded Endpoint: self-cleavage kobs at 10000 uM GlcN6P (s⁻¹)
Field: numeric (s⁻¹). Do not append units.

Solved entries (count: 3):
* G41C A42G | 0.000158
* A15G C67A C68A | 5.65e-05
* A12U G41A | 0.00216

Problem: Look up and state reported self-cleavage kobs at 10000 uM GlcN6P for C11U U56A C70U
Solution: 0.000416

Problem: Please give measured self-cleavage kobs at 10000 uM GlcN6P of the following entry: A12C A15U G40U
Solution: 0.00018

Problem: Please give measured self-cleavage kobs at 10000 uM GlcN6P of the following entry: A12G U56C
Solution: 0.000244

Problem: Output measured self-cleavage kobs at 10000 uM GlcN6P for this item: G41C A42U
Solution: 3.82e-05

Problem: Report self-cleavage kobs at 10000 uM GlcN6P, nothing else, for this variant: C11A C68U
Solution: 4.9e-05
